Molecular target: T1, GST-MINT1 PDZ domains 1, 2, Q02410
T1 chain: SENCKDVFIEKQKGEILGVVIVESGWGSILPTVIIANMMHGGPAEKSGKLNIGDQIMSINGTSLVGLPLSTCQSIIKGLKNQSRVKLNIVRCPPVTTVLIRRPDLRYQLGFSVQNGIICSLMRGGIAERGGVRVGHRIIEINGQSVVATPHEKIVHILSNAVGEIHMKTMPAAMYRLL
Assay: G' assay; also: key of the grades not given here
Field: Classification. Provide a value for each of the binders that follow.
A number alone suffices; assume A450 class.

Notebook: KTMPAATYRLLTGQEQPVYL (modifications not checked) [MINT-3] , Classification read as 2

Consider VGTLLLERVIFPSVKIATLV (modifications not checked) [AdenoE4 typ9] . Its measured Classification is 2

Short answer for PGQPPKVKSEFNSYSLTGYV (modifications not checked) [claudin 2] : Classification was 2

Please fill in: Classification reported for LNETTETQRTLLNGDLQTSI (modifications not checked) [SSTR2 (somatostatin recepor 2)] = 1

For this binder ( LGYSIPSRSGASGLDKRDYV (modifications not checked) [claudin 9] ), measured Classification is 1

Looking up DGGARTEDEVQSYPSKHDYV (modifications not checked) [claudin 18] , I found its Classification recorded as 1

The binder identified as ISGTPTSTMVHGMTSSSSVV (modifications not checked) [Clasp-2] registered its Classification at 1

So for RNIEEVYVGGKQVVPFSSSV (modifications not checked) [Nedasin (s-form)] , the logged Classification turned out to be 1

Record summary for ALVLIAFCIIRRRPSAYQAL (modifications not checked) [CD68] : reported Classification = 1

For NGGFAVDKSDTISFTQTSQF (modifications not checked) [glutamate transporter 3] the binder record lists Classification as 1

Consider ELLQFCRTPNPALKNGQYWV (modifications not checked) [CSPG4 (chondroitin sulfae proteoglycan 4, melanoma-associated)] . Its measured Classification is 5

Data point: PYSELNYETSHYPASPDSWV (modifications not checked) [catenin - delta 2] ; Classification = 5

// field: Classification; key: KTMPAAMYRLLTAQEQPVYI (modifications not checked) [MINT-1] ; value = 5

KTMPAAMFRLLTGQETPLYI (modifications not checked) [MINT-2] has a reported Classification of 5

According to the records, this binder PIPAGGCTFSGIFPTLTSPL (modifications not checked) [KIA 1481] displays Classification of 3

Briefly, Classification measured for TFAAGFNSTGLPHSTTRV (modifications not checked) [Neuroligin] : 1

Entry under test: DTLLLTENEGDKTEEQVSYV (modifications not checked) [serotonin receptor 5HT-2B] . Its Classification was 1

Value of Classification reported for the binder SSKSKSSEESQTFFGLYKL (modifications not checked) [Fas Ligand] is 4

Value of Classification reported for the binder KAGYRAPRSYPKSNSSKEYV (modifications not checked) [claudin 7] is 4

Looking up SSPDSSYQGKGFVMSRAMYV (modifications not checked) [Nectin 2] , I found its Classification recorded as 2

According to the records, this binder ILNSIQVMRAQMNQIQSVEV (modifications not checked) [ephrin B2] displays Classification of 2

Record summary for EALQPEPGRKRIPLTRTTTF (modifications not checked) [somatostatin receptor 4] : reported Classification = 1

Reported Classification of KKGTYLTDETHREVKFTSL (modifications not checked) [CD46] : 1

Looking up DSDPENEPFDEDQHTQITKV (modifications not checked) [PTEN] , I found its Classification recorded as 1

Classification reading for ERASSVYTRSTGEQEISVGL (modifications not checked) [CKR5 (HIV Co-receptor)] : 1

// Classification lookup, binder = AWDDSARAAGGQGLHVTAL (modifications not checked) [LPAP] , result: 1
